- experiment.notes: Tmax in C57BL/6 mouse at 10 mg/kg, po measured upto 72 hrs
- Format: ADME, organism-based
- condition: in vivo
measured.metric: Tmax (min)

1. Cc1ncsc1-c1ccc(CNC(=O)[C@@H]2C[C@@H](O)CN2C(=O)[C@@H](NC(=O)CCCCCCCCCOc2ccc3c(-c4ccc(C(=O)O)c(C5CCCC5)c4)ncnc3c2)C(C)(C)C)cc1 | 30

###

- experiment.notes: Half life in Beagle dog at 3 mg/kg, po or 1 mg/kg, iv measured upto 72 hrs
- Type: ADME, organism-based, Canis lupus familiaris
- condition: in vivo
measured.metric: half-life (h)

1) CCOc1cc(F)c2c(-c3ccc(C(=O)O)c(C(C)C)c3)ncnc2c1 | 11

Reference source for all entries: ChEMBL document CHEMBL5375964
